# EXPERIMENT SUMMARY: NCI Yeast Anticancer Drug Screen. Data for the mec2-1 strain (AID 157)
# MEASUREMENT SETUP: S. cerevisiae mec2-1 strain, at 50.0 µM (retest, dose inferred, filed as 5.0)
About 79,000 compounds went through this panel and 15% of them were active in at least one assay; those are over-represented in the sample as a whole. Active and inactive are the calls of the source. Rule as the data show it: active = growth inhibition above about 70%; inactive = the rest.
// one of active, inactive, no free text

Below are worked cases with known answers.
# COMPOUND, ASSIGNED CATEGORY
rows = [
    ("Oc1c(Cl)cc(Cl)cc1/C=C1\\C=Nc2ccccc21", "inactive"),
    ("C=C1CC2(CCS(=O)(=O)c3ccccc32)OC1=O (stereo unspecified)", "inactive"),
    ("COc1ccc(C=C(C(=O)c2ccccc2)C(=O)c2ccccc2)cc1", "active"),
    ("Cc1ccc(C(OS(=O)(=O)c2ccc(C)cc2)C(F)(F)F)cc1 (stereo unspecified)", "inactive"),
    ("CCCCCCCCCCC(O)CN1CCN(c2cccc(Cl)c2)CC1 (stereo unspecified)", "active"),
    ("CCCCCCC(C)OC(=O)c1ccccc1C(=O)O (stereo unspecified)", "inactive"),
    ("COc1ccc(-c2c(-c3ccccc3)c(C)nc3nc(SC)nc(SC)c23)cc1OC", "active"),
    ("CCCCOCN(CC(CC)CCCC)CC(CC)CCCC (stereo unspecified)", "inactive"),
]

In: // return assay outcome for C[n+]1c(-c2ccc(/C=N/Nc3n[nH]c(=S)n3/N=C/c3ccc(-c4cn5ccsc5[n+]4C)cc3)cc2)cn2ccsc21
Out: active

In: // return assay outcome for CC(=O)C1(O)C(Br)CC2C3CC=C4CC(O)CCC4(C)C3CCC21C (stereo unspecified)
Out: active

In: // return assay outcome for O=c1c2ccccc2sc2c([N+](=O)[O-])ccc(NCCNCCO)c12
Out: active

In: // return assay outcome for O=C1C=C(c2ccccc2)OC1(Nc1ccccc1)c1ccccc1 (stereo unspecified)
Out: inactive

In: // return assay outcome for CC(=O)Oc1ccc(-c2ccc(Br)cc2)cc1
Out: active

In: // return assay outcome for O=C(OCCC1CCCCC1)c1cc([N+](=O)[O-])cc([N+](=O)[O-])c1
Out: active

* * *

# EXPERIMENT SUMMARY: NCI Yeast Anticancer Drug Screen. Data for the bub3 strain (AID 167)
# MEASUREMENT SETUP: S. cerevisiae bub3 mutant strain, at 5.0 µM (retest, dose inferred, filed as 0.5), hits give high values
About 79,000 compounds went through this panel and 15% of them were active in at least one assay; those are over-represented in the sample as a whole.
Values of growth inhibition greater than or equal to 20% map to Fulfilled; values below map to Not fulfilled.

# SUBSTANCE SMILES, ASSIGNED CATEGORY
measured = [
    ("Cc1cc(Sc2ccccc2)c2c(C)ccc(C(C)C)cc1-2", "Not fulfilled"),
    ("CCOc1ccc(/C=N\\NC(=O)c2ccco2)cc1OCC", "Not fulfilled"),
    ("N=C(N)c1ccc(Nc2ccc(C(=N)N)cc2)cc1", "Fulfilled"),
    ("CCc1ccc(N(C(C)=O)C2=C(Cl)C(=O)c3ccccc3C2=O)cc1", "Fulfilled"),
    ("CCOP(=O)(CCC(=O)[C@@]1(O)CC[C@H]2[C@@H]3CCC4=CC(=O)CC[C@]4(C)[C@H]3CC[C@@]21C)OCC", "Not fulfilled"),
]

In: Reported growth inhibition at or above 20%? O=C1C=CC(=O)c2c(O)c(N3CCC[C@@H]3CO)c(Cl)c(O)c21
Out: Fulfilled

In: Reported growth inhibition at or above 20%? CCOC(=O)N1C=CC(=C2C(=C3C=CN(C(=O)OCC)C=C3)C(=C3C=CN(C(=O)OCC)C=C3)C2=C2C=CN(C(=O)OCC)C=C2)C=C1
Out: Not fulfilled

In: Reported growth inhibition at or above 20%? CCNc1ncnc2c1ncn2Cc1ccco1
Out: Not fulfilled

* * *

# EXPERIMENT SUMMARY: NCI Yeast Anticancer Drug Screen. Data for the rad50 strain (AID 155);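 also: 0% = growth of vehicle-only cultures of the same strain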
# MEASUREMENT SETUP: S. cerevisiae rad50 strain growth inhibition; at 5.0 µM (retest, dose inferred, filed as 0.5); hits give high values
# Experimental: Growth inhibition of yeast strains with defined genetic alterations is measured as a screen for potential anti-cancer activity. Selected strains with alterations in DNA damage repair or cell cycle control were exposed to compounds and growth inhibition was measured relative to vehicle treated controls. The strain used in this assay is rad50
This is part of a sample that, as a whole, favours compounds with a hit. Of some 79,000 tested, about 15% had one in any assay.
OBSERVED PROPERTY: growth inhibition (%)
Answers are plain numbers, in %.

See these solved cases before continuing.
# MOLECULE, growth inhibition, %
rows = [
    ("Fc1cccc(NC(=S)SCc2ccco2)c1", 9),
    ("CC(=O)SC(SC(C)=O)SC(C)=O", 11),
    ("CCOC(=O)c1cnc2cc3cccccc3n2c1=O", 4),
]

For every listed record, write down its growth inhibition.
1. O=C1C2C3C=CC(C2C(=O)N1CN1CCOCC1)C1C2C(=O)N(CN4CCOCC4)C(=O)C2C31 (stereo unspecified)
2. CC(=O)Oc1ccc(-c2ccc(Br)cc2)cc1
3. CN1C(=O)CCCCCCCCCCSc2ccccc21
4. COc1ccc(/C=C/c2ccc3ccccc3n2)cc1OC
5. CC(=O)OC1CCC(C(C)(C)C)C(C)C1 (stereo unspecified)
6. Clc1ccc(C2=NCON=C2c2ccc(Cl)cc2)cc1
7. COc1ccc(C2COc3c(ccc(O)c3O)C2)cc1 (stereo unspecified)

Out:
[-6, -1, 7, 3, 3, 17, 1]

For every listed record, write down its growth inhibition.
1. CC(C)(C)c1cc(Cl)c(O)c(Cc2cc(C(C)(C)C)cc(Cl)c2O)c1
2. S=c1[nH]nc(Nc2ccccc2Cl)s1
3. CCCCCCCN(CCCCCCC)CC(=O)NC(=O)c1ccccc1
4. Cn1cc(NC(=O)Nc2cc(C(=O)Nc3cc(C(=O)Nc4cc(S(=O)(=O)O)c5cc(S(=O)(=O)O)cc(S(=O)(=O)O)c5c4)n(C)c3)n(C)c2)cc1C(=O)Nc1cc(C(=O)Nc2cc(S(=O)(=O)O)c3cc(S(=O)(=O)O)cc(S(=O)(=O)O)c3c2)n(C)c1
5. CCCC(C)C/C(C)=C\C(C)(C)C1CC(=O)N(CC)C1=O (stereo unspecified)

Out:
1: 5; 2: 17; 3: 29; 4: 35; 5: -3

For every listed record, write down its growth inhibition.
1. COc1ccc(C2CC(c3sc(Nc4ccc(C)cc4)nc3C)=NN2)cc1 (stereo unspecified)
2. O=C(CSCc1c(F)cccc1Cl)Nc1ccc(F)c(Cl)c1
3. CC/C(Cl)=N\OC(=O)Nc1ccc(F)c(Cl)c1
4. O=C(CBr)N1c2ccccc2S(=O)(=O)c2ccc3ccccc3c21
5. O=C(O)CN1CCNCCN(CC(=O)O)CCNCC1

Out:
1. -1
2. 51
3. -8
4. 36
5. 66

* * *

# EXPERIMENT SUMMARY: NCI Yeast Anticancer Drug Screen. Data for the bub3 strain (AID 167)
# MEASUREMENT SETUP: S. cerevisiae bub3 mutant strain, at 50.0 µM (retest, dose inferred, filed as 5.0)
The panel holds about 79,000 compounds, 15% with a hit somewhere; the sample as a whole holds those more often. Active and inactive are the calls of the source. Rule as the data show it: active = growth inhibition above about 70%; inactive = the rest.
// one of 1 (active), -1 (inactive), no free text

# COMPOUND, ASSIGNED CATEGORY
measured = [
    ("Cc1ccc(C2(O)CCN(Cc3ccccc3)CC2)cc1", 1),
    ("O=C(NC1=Nc2c(ncn2COCCO)S(=O)(=O)[N-]1)c1ccccc1.[Ag+]", 1),
    ("OC(c1cc(-c2ccccc2)nc2cc(Cl)ccc12)C1CCCCN1 (centres undefined)", -1),
    ("[O-]c1c2cc(-[n+]3c(-c4ccccc4)cc(-c4ccccc4)cc3-c3ccccc3)cc1CO[C@@H](c1ccccc1)[C@H](c1ccccc1)OCCOCCO[C@@H](c1ccccc1)[C@H](c1ccccc1)OC2", 1),
    ("CC(C)/C(Cl)=N/OC(=O)Nc1ccc(OC(F)(F)F)cc1", 1),
    ("Cc1cc2nc3[nH]c4c(Cl)cc(Cl)cc4c3nc2cc1C", -1),
]

In: // return assay outcome for O=C(OCCC1CCCCC1)c1cc([N+](=O)[O-])cc([N+](=O)[O-])c1
Out: 1

In: // return assay outcome for O=C1OC(c2cccc(Cl)c2)Sc2ccccc21 (centres undefined)
Out: 1

In: // return assay outcome for Cn1c(CCC2(C)Cc3ccccc3C(=O)O2)cc2ccccc2c1=O (centres undefined)
Out: 1

In: // return assay outcome for OC/C(=C\c1ccccc1Br)c1ccccc1Br
Out: 1

In: // return assay outcome for CCOCCOc1ccc(OCCOCC)cc1
Out: -1

Data provenance is PubChem BioAssay (NCI).
